# target_or_system: UGT2B15 (Homo sapiens)
# Sequence (P54855 whole entry): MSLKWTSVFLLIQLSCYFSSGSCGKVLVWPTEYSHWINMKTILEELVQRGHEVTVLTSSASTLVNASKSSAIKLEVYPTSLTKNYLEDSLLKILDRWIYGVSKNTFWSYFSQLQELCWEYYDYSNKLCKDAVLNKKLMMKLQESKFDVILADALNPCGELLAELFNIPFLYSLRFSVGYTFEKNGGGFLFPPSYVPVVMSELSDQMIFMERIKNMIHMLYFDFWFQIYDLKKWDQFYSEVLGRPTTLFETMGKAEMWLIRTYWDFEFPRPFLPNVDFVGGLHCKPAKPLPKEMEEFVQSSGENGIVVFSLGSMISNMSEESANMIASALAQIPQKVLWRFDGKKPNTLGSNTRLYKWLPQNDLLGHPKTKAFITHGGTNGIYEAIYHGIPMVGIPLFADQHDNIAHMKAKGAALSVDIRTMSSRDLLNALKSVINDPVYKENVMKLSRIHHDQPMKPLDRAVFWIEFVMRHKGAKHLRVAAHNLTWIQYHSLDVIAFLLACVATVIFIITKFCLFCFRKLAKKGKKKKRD
# experiment_description: Inhibition of dihydrotestosterone (assayed at the Km) glucuronidation by human recombinant UGT2B15 (+/- 11% inhibition at 5mM VPA)
# assay_setup: recombinant UGT2B15, probe dihydrotestosterone
observable: inhibition at 5000 µM (%)
Use % as the unit, but write only the number.

Report measured inhibition at 5000 µM on UGT2B15 (Homo sapiens); entry: CCCC(CCC)C(=O)O
41

###

# experiment_description: Inhibition of morphine glucuronidation by human UGT enzymes from liver microsomes
# Parameters: species or system Microsome
Documented Ki across a set of compounds
Use µM as the unit, but write only the number.

C=CCN1CC[C@]23c4c5ccc(O)c4O[C@H]2C(=O)CC[C@@]3(O)[C@H]1C5 [NALOXONE] ... 630
O=C1Nc2ccc(Cl)cc2C(c2ccccc2Cl)=NC1O (centres undefined) [LORAZEPAM] ... 160
O=C(N[C@H](CO)[C@H](O)c1ccc([N+](=O)[O-])cc1)C(Cl)Cl [CHLORAMPHENICOL] ... 980

Please look at the following compound next.
Give reported Ki value for CN1C(=O)CN=C(c2ccccc2)c2cc(Cl)ccc21 [DIAZEPAM]
120

###

# experiment_description: Inhibition of mycophenolic acid (0.5 mM) glucuronidation by human kidney microsomes
# Parameters: species or system Microsome
observable: IC50

Known IC50 results, listed for orientation:
O=C(O)c1cc(-c2ccc(F)cc2F)ccc1O [DIFLUNISAL] ... 122 µM
O=C(O)c1cccnc1Nc1cccc(C(F)(F)F)c1 [NIFLUMIC ACID] ... 8 µM

Give reported IC50 value for Cc1cccc(Nc2ccccc2C(=O)O)c1C [MEFENAMIC ACID]
49 µM

Give reported IC50 value for O=C(O)c1ccccc1Nc1cccc(C(F)(F)F)c1 [FLUFENAMIC ACID]
13 µM

###

# experiment_description: Inhibition of morphine (3-O-glucuronidation) glucuronidation by human UGT enzymes from liver microsomes
# Design: species or system Microsome
Documented Ki across a set of compounds
Use µM as the unit, but write only the number.

Known Ki results, listed for orientation:
CN(C)CCC=C1c2ccccc2CCc2ccccc21 ... 160
CN(C)CCCN1c2ccccc2CCc2ccc(Cl)cc21 ... 90

Please look at the following compound next.
Give reported Ki value for CNCCC=C1c2ccccc2CCc2ccccc21
33
